Attribution: patent US20240076392A1

Measured koff values are reported for all entries that follow.
- study_system: T1, recombinant human CD123 protein (CD123)-His Acrobio #ILA-H52H6 (human, UniProt P26951 19-305)
- T1 construct: Bought protein; also called hu IL-3R alpha (CD123)-His; not shown: His tag
- T1 sequence (looked up): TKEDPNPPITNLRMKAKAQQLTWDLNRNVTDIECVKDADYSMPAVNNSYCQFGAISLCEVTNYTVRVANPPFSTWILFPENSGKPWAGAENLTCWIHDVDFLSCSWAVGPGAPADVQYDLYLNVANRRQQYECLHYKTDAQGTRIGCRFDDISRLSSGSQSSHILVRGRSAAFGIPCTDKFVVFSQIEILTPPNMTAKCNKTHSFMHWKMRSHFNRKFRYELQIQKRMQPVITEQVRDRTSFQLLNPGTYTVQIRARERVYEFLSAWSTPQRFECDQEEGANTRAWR
- experiment_summary: BLI (Octet), CD123-His on anti-penta-His sensors, IgG in solution, 1:1 global fit
Express it in s⁻¹; write the number only.

{"columns": ["binder", "measure_unit", "koff"],
 "data": [
  ["h32716-3-1 IgG (antibody, V domains shown, Human IgG format) VH: QVQLVQSGAEVKKPGSSVKVSCKASGYIFTNYGMNWVKQAPGQGFKWMGWINTYTGESTYSADFKGRFTFTLDESTSTAYMELSSLRSEDTAVYYCARSGGYDPMDYWGQGTLVTVSS VL: DIVMTQSPDSLAVSLGERATINCRASESVDNYGNTFMHWYQQKPGQPPKLLIYRASNLESGVPDRFSGSGSGTDFTLTISSLQAEDVAVYYCQQSNEDPPTFGQGTRLEIK", "s⁻¹", 0.00031],
  ["h32716-5-2 IgG (antibody, V domains shown, Human IgG format) VH: QVQLVQSGPELKKPGASVKVSCKASGYIFTNYGMNWVKQAPGQGLEWMGWINTYTGESTYSADFKGRFVFSLDTSVSTAYLQISSLKAEDTAVYYCARSGGYDPMDYWGQGTLVTVSS VL: DIQMTQSPSSLSASVGDRVTITCRASESVDNYGNTFMHWYQQKPGKAPKLLIYRASNLESGVPSRFSGSGSGTDFTFTISSLQPEDIATYYCQQSNEDPPTFGQGTKVEIK", "s⁻¹", 0.00045]
]}

Shifting focus to the binder that follows.
Lookup: Please report the recorded koff for h32716-4-2 IgG (antibody, V domains shown, Human IgG format) VH: QVQLVQSGPELKKPGASVKVSCKASGYIFTNYGMNWVRQAPGQGLEWMGWINTYTGESTYSADFKGRFVFSLDTSVSTAYLQISSLKAEDTAVYYCARSGGYDPMDYWGQGTLVTVSS VL: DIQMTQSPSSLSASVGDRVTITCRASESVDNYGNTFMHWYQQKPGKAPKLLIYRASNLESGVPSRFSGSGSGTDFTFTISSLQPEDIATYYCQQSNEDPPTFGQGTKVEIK .
Found: 0.00046
